assay_explanation: anti-His antibody binders, primary screen, artefact control for SMM control protein annotation, biochemical, small-molecule microarray, 635 nm fluorescence (AID 1128);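 also: score merges feature fluorescence with signal-to-noise for each printed compound spot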
test_context: anti-His Alexa647 antibody binding, higher = more signal
Please use condition met whenever composite z-score is not below 2, and condition not met whenever it is.

Reference set, count: 5
compound: COc1ccc([Si](C)(C)[C@@H]2[C@@H](CCO)O[C@]3(C(=O)N(Cc4ccccc4)c4ccc(N5C(=O)c6ccccc6Oc6ccccc65)cc43)[C@H]2C)cc1
class: condition not met
//
compound: C=CCN1C(=O)[C@]2(O[C@H](CCn3cc([C@H](O)c4ccccc4)nn3)[C@@H]([Si](C)(C)c3ccc(OC)cc3)[C@@H]2C)c2cc(N3C(=O)c4cccc5cccc3c45)ccc21
class: condition not met
//
compound: COC(=O)[C@@]1(Cc2ccc(F)cc2)[C@H]2c3cc(C(=O)N4CCCC4)n(CCO)c3C[C@H]2CN1C(=O)c1ccccc1
class: condition not met
//
compound: CC(=O)c1ccc(C(O)C2C=CC3C(=O)NC(=O)C3N2Nc2ccc(Cl)cc2Cl)cc1 (stereo unspecified)
class: condition not met
//
compound: COCCOC(=O)N1C(=O)[C@@]2(c3cc(C#CC4=CCCCC4)ccc31)[C@H](C(=O)N1CCc3cc(OC)c(OC)cc3C1)[C@H]1C(=O)O[C@H](c3ccccc3)[C@H](c3ccccc3)N1[C@@H]2c1ccc(O)cc1
class: condition not met

Now for a further compound.
IN: Decide: composite z-score of COCCCNC(=O)[C@@H]1c2ccccc2C(=O)N(C2CCCCC2)[C@H]1c1ccc(CO)cc1 >= 2?
OUT: condition met
